# target.or.test.system: human QRFPR (hQRFPR) (Homo sapiens, UniProt Q96P65)
# Construct: expressed in transfected cells; host or cells: CHO cells, stably transfected with hQRFPR (G418 selection) and Gα16 (hygromycin B selection)
# protocol.text: Calcium mobilization assay, agonist mode ([Ca2+]i in Gα16-hQRFPR-transfected CHO cells)
# Format: cell-based
# condition.info: [Ca2+]i mobilization in Gα16-hQRFPR-transfected CHO cells; mean of at least three independent experiments performed in triplicate; read-out: EC50
No end group written: not given here.
assay.metric: EC50 (nM)
Give just the numeric value; nM need not be written.

Recorded results for 2 substances are shown here.
INSERT INTO assay_data (substance, target_or_test_system, assay_metric, readout_value) VALUES
  ('GGFSWRF-NH2 [Compound 9, [Trp^24]26RFa(20–26)]', 'human QRFPR (hQRFPR) (Homo sapiens, UniProt Q96P65)', 'EC50', 2040),
  ('GGFSFRW-NH2 [Compound 10, [Trp^26]26RFa(20–26)]', 'human QRFPR (hQRFPR) (Homo sapiens, UniProt Q96P65)', 'EC50', 5060);

Now for the substance whose EC50 we want.
Lab note: measured EC50 of GGWSFRF-NH2 [Compound 8, [Trp^22]26RFa(20–26)] was 1980

###

# target.or.test.system: human QRFPR (hQRFPR) (Homo sapiens, UniProt Q96P65)
# Construct: expressed in transfected cells; host or cells: CHO cells, stably transfected with hQRFPR (G418 selection) and Gα16 (hygromycin B selection)
# Sequence (Q96P65 1-431): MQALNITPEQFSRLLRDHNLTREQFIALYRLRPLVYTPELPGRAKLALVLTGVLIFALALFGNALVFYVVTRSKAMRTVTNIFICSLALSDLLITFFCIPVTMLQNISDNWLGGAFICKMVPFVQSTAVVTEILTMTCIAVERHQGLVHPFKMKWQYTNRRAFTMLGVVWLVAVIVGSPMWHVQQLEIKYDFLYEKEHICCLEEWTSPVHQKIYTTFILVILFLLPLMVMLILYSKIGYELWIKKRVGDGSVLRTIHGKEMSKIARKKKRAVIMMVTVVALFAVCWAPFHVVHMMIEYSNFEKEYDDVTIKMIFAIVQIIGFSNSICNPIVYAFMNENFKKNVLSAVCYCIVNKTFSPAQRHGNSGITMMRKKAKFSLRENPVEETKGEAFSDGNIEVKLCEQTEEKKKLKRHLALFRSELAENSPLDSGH
# protocol.text: Calcium mobilization assay, agonist mode ([Ca2+]i in Gα16-hQRFPR-transfected CHO cells)
# Format: cell-based
# condition.info: [Ca2+]i mobilization in Gα16-hQRFPR-transfected CHO cells; mean of at least three independent experiments performed in triplicate; read-out: EC50
Non-standard residues stand in square brackets, D forms with d. Residues, ends and D or L forms follow the SMILES beside them. *: point of attachment. X6 = O=C(C(c1ccc(F)cc1)N1CCNCC1)*; dTic = O=C(O)[C@H]1Cc2ccccc2CN1
assay.metric: pEC50
Bear in mind: pEC50 is minus log10 of a mol/L concentration; give just that figure.

INSERT INTO assay_data (compound, readout_value) VALUES
  ('N=C(N)NCCC[C@H](NC(=O)[C@H](Cc1ccccc1)NC(=O)[C@H](CO)NC(=O)C(c1ccc(F)cc1)N1CCNCC1)C(=O)N[C@@H](Cc1ccccc1)C(N)=O (stereo partly shown) [Compound 51, [Cmpi(4-FPhg)^22]26RFa(22–26)] (X6-SFRF-NH2)', 5.39);

Lab note: measured pEC50 of N=C(N)NCCC[C@H](NC(=O)[C@H]1Cc2ccccc2CN1C(=O)[C@H](CO)NC(=O)[C@H](Cc1ccccc1)NC(=O)CNC(=O)CN)C(=O)N[C@@H](Cc1ccccc1)C(N)=O [Compound 41, [DTic^24]26RFa(20–26)] (H-GGFS[dTic]RF-NH2) was 5.21

###

# target.or.test.system: human QRFPR (hQRFPR) (Homo sapiens)
# Construct: expressed in transfected cells; host or cells: CHO cells, stably transfected with hQRFPR (G418 selection) and Gα16 (hygromycin B selection)
# protocol.text: Calcium mobilization assay, agonist mode ([Ca2+]i in Gα16-hQRFPR-transfected CHO cells)
# Assay type: cell-based
# condition.info: single prototype curve, triplicate; basal [Ca2+]i mobilization; read-out: EC50 calculated from representative dose–response curves (Figure 3)
Non-standard residues stand in square brackets, D forms with d. Residues, ends and D or L forms follow the SMILES beside them. Phe(4-NO2) = N[C@@H](Cc1ccc([N+](=O)[O-])cc1)C(=O)O; Phe(4-tBu) = CC(C)(C)c1ccc(C[C@H](N)C(=O)O)cc1; Phe(4-Cl) = N[C@@H](Cc1ccc(Cl)cc1)C(=O)O; Tic = O=C(O)[C@@H]1Cc2ccccc2CN1; Nphe = O=C(O)CNCc1ccccc1
assay.metric: pEC50
Bear in mind: pEC50 is minus log10 of a mol/L concentration; give just that figure.

Recorded results for 4 compounds are shown here.
INSERT INTO assay_data (compound, target_or_test_system, readout_value) VALUES
  ('N=C(N)NCCC[C@H](NC(=O)[C@H](Cc1ccccc1)NC(=O)[C@H](CO)NC(=O)[C@@H]1Cc2ccccc2CN1C(=O)CNC(=O)CN)C(=O)N[C@@H](Cc1ccccc1)C(N)=O [Compound 28, [Tic^22]26RFa(20–26)] (H-GG[Tic]SFRF-NH2)', 'human QRFPR (hQRFPR) (Homo sapiens)', 6.52),
  ('N=C(N)NCCC[C@H](NC(=O)[C@H](Cc1ccccc1)NC(=O)[C@H](CO)NC(=O)CN(Cc1ccccc1)C(=O)CNC(=O)CN)C(=O)N[C@@H](Cc1ccccc1)C(N)=O [Compound 31, [NPhe^22]26RFa(20–26)] (H-GG[Nphe]SFRF-NH2)', 'human QRFPR (hQRFPR) (Homo sapiens)', 6.83),
  ('N=C(N)NCCC[C@H](NC(=O)[C@H](Cc1ccccc1)NC(=O)[C@H](CO)NC(=O)[C@H](Cc1ccccc1)NC(=O)CNC(=O)CN)C(=O)N[C@@H](Cc1ccc([N+](=O)[O-])cc1)C(N)=O [Compound 19, [pNO2Phe^26]26RFa(20–26)] (H-GGFSFR[Phe(4-NO2)]-NH2)', 'human QRFPR (hQRFPR) (Homo sapiens)', 6.31),
  ('CC(C)(C)c1ccc(C[C@H](NC(=O)[C@H](CCCNC(=N)N)NC(=O)[C@H](Cc2ccccc2)NC(=O)[C@H](CO)NC(=O)[C@H](Cc2ccccc2)NC(=O)CNC(=O)CN)C(N)=O)cc1 [Compound 13, [ptBuPhe^26]26RFa(20–26)] (H-GGFSFR[Phe(4-tBu)]-NH2)', 'human QRFPR (hQRFPR) (Homo sapiens)', 5.97);

Now for the compound whose pEC50 we want.
Kindly note: human QRFPR (hQRFPR) (Homo sapiens), N=C(N)NCCC[C@H](NC(=O)[C@H](Cc1ccccc1)NC(=O)[C@H](CO)NC(=O)[C@H](Cc1ccccc1)NC(=O)CNC(=O)CN)C(=O)N[C@@H](Cc1ccc(Cl)cc1)C(N)=O [Compound 16, [Pcp^26]26RFa(20–26)] (H-GGFSFR[Phe(4-Cl)]-NH2) , pEC50 value reported: 6.38

###

The entries below come with measured pEC50 values attached.
# target.or.test.system: human QRFPR (hQRFPR) (Homo sapiens)
# Construct: expressed in transfected cells; host or cells: CHO cells, stably transfected with hQRFPR (G418 selection) and Gα16 (hygromycin B selection)
# protocol.text: Calcium mobilization assay, agonist mode ([Ca2+]i in Gα16-hQRFPR-transfected CHO cells)
# Format: cell-based
# condition.info: [Ca2+]i mobilization in Gα16-hQRFPR-transfected CHO cells; mean of at least three independent experiments performed in triplicate; read-out: EC50
pEC50: −log10 of the molar value. Positions of bridges follow the written chain, without caps; N, C: chain ends. Non-standard residues stand in square brackets, D forms with d. Residues, ends and D or L forms follow the SMILES beside them. ξ: configuration not given here. Phe(4-tBu) = CC(C)(C)c1ccc(C[C@H](N)C(=O)O)cc1; ξPhg = NC(C(=O)O)c1ccccc1

INSERT INTO results (molecule, readout_value) VALUES
  ('CC(C)(C)c1ccc(C[C@H](NC(=O)[C@H](CO)NC(=O)[C@H](Cc2ccccc2)NC(=O)CNC(=O)CN)C(=O)N[C@@H](CCCNC(=N)N)C(=O)N[C@@H](Cc2ccccc2)C(N)=O)cc1 [Compound 12, [ptBuPhe^24]26RFa(20–26)] (H-GGFS[Phe(4-tBu)]RF-NH2)', '< 5.00'),
  ('N=C(N)NCCC[C@H](NC(=O)[C@H](Cc1ccccc1)NC(=O)[C@H](CO)NC(=O)[C@H](Cc1ccccc1)NC(=O)CNC(=O)CN)C(=O)NC(C(N)=O)c1ccccc1 (stereo partly drawn) [Compound 23, [Phg^26]26RFa(20–26)] (H-GGFSFR[ξPhg]-NH2)', '< 5.00');

Now for the molecule whose pEC50 we want.
Lab note: measured pEC50 of N=C(N)NCCC[C@@H]1NC(=O)[C@H](Cc2ccccc2)NC(=O)[C@H](CO)NC(=O)[C@@H](NC(=O)CNC(=O)CN)CSSC[C@@H](C(N)=O)NC1=O [Compound 47, [Cys^22,26]26RFa(20–26)] (H-GGCSFRC-NH2; disulfide 3-7) was < 5.00
